Let's look at some binders and their measured pKd.
- Target: MAGI2_2, Q86UL8
- Sequence (Q86UL8 410-522): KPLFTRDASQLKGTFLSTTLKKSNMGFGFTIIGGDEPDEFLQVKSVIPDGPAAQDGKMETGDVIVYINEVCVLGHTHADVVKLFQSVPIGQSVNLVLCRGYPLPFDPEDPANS
- Method: holdup assay
- Design: key: below the threshold = too weak to quantify, mostly under pKd 3.1 to 4
- Stated Conditions: plain residues with an end cap or a label only (N-terminal biotin on a linker: ttds)
Respond numerically, and do not add a unit to the figure.

I'd like to know its pKd. The binder in question is VDFPPKESSL [ACVR2A, P27037] 3.78

Another: QRQARSETLV [HPV59-E6, Q81964] 6.07

Next:
I'd like to know its pKd. The binder in question is DKDPHSETAL [TMIGD1, Q6UXZ0] 3.63
